# key: entry, value: IC50 of IL-8 release, NCI/ADR-RES cells stimulated with IL-36α
# Tgt: T1, human IL-36R (human, UniProt Q9HB29 20-575)
# T1 sequence (looked up): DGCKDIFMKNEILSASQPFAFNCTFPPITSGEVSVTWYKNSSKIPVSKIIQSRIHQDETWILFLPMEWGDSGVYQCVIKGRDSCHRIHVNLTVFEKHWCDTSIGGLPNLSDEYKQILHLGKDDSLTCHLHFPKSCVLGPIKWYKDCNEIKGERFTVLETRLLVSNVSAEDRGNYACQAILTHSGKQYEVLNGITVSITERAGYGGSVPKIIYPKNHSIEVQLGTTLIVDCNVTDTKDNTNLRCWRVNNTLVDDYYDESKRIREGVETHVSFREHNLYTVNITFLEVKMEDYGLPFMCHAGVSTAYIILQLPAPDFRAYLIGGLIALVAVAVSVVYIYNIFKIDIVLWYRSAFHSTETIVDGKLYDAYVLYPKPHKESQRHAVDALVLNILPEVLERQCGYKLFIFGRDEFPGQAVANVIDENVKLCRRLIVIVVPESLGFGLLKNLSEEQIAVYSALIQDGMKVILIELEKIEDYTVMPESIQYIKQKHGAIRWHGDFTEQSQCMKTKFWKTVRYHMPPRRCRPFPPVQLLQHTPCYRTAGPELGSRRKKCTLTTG
# Assay protocol: cell-based or functional assay
Observable: IC50 of IL-8 release, NCI/ADR-RES cells stimulated with IL-36α (µg/mL)

Binder: anti-IL-36R chimeric antibody 900497 (antibody, V domains shown, Human-mouse chimera: human IgG1 heavy constant region with L234A and L235A (Eu numbering), human kappa light constant region) VH: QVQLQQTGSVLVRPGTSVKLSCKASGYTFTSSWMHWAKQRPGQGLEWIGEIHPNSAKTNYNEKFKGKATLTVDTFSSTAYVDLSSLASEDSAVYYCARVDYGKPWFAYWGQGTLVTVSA VL: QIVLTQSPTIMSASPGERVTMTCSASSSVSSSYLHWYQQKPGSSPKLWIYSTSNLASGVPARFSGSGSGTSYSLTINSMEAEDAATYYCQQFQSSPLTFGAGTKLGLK
Quantitative readout: 0.0439
--
Binder: humanized anti-IL-36R antibody 900513 (antibody, V domains shown, IgG1 (vector with L234A, L235A) and human kappa) VH: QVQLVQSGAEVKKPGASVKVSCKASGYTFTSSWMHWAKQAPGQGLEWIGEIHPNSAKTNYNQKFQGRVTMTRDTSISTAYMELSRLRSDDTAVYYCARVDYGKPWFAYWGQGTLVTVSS VL: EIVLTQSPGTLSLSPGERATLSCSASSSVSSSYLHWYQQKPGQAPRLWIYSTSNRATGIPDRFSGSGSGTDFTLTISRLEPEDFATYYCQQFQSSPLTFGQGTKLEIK
Quantitative readout: 0.0398
--
Binder: humanized anti-IL-36R antibody 900527 (antibody, V domains shown, IgG1 (vector with L234A, L235A) and human kappa) VH: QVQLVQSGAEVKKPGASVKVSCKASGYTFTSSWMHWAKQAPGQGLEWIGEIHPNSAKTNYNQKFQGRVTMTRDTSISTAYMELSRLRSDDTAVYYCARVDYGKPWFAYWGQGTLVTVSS VL: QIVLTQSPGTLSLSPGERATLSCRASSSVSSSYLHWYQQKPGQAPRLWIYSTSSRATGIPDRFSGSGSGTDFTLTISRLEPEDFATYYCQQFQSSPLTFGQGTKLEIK
Quantitative readout: 0.0315
--
Binder: humanized anti-IL-36R antibody 900534 (antibody, V domains shown, IgG1 (vector with L234A, L235A) and human kappa) VH: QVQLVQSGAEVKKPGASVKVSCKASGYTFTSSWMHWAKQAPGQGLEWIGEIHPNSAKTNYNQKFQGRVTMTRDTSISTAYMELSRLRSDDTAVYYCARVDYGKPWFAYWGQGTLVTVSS VL: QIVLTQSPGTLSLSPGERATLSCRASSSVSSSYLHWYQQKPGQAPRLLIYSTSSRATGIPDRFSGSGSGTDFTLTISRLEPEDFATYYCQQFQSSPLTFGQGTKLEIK
Quantitative readout: 0.0304
